B1: HDV Ribozyme (parent)
chain: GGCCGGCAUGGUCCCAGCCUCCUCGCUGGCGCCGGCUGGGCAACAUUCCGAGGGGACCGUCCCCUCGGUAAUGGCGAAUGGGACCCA

- Variants of: B1
- test.summary: self-cleavage, relative activity (ratio to wild type); higher = more cleavage; co-transcriptional
Label y when self-cleavage >= 0.2; otherwise n.

Does the variant C13A G59A have recorded self-cleavage that is 0.2 or more?
n

Could you verify whether the entry G10U U23C shows self-cleavage of no less than 0.2?
y

self-cleavage >= 0.2 for G6C C33A ?
n

# bool: self-cleavage of G81C A87C >= 0.2
y

# check: self-cleavage of U79C G82A is greater than or equal to 0.2
n

Entry G81U G82A : is its self-cleavage no less than 0.2?
y
